Test system: MDA-MB-468 breast
Assay: NCI tumour cell line growth inhibition, 48 h
Where a SMILES comes first, the peptide text is derived from it. The star is where a group is joined. Trt = c1ccc(C(c2ccccc2)(c2ccccc2)*)cc1; Cbz = O=C(OCc1ccccc1)*
Recorded TGI, one value per entry.

| molecule | op | TGI [µM] |
| --- | --- | --- |
| NC(=O)c1ccc(N(C(N)=O)c2c(F)cccc2F)nc1-c1ccc(F)cc1F | > | 100 |
| COc1cccc2c1cc1c3c(cc4c(c32)OCO4)C(=O)N1 | = | 6.22 |
| COc1ccc(-c2n/c(=C\c3c(O)[nH]c4ccccc34)cc3c2=Nc2ccccc2-3)cc1 | = | 1.43 |
| CCCn1c(=O)c2[nH]c(-c3ccc(OCc4nc5ccccc5[nH]4)cc3)nc2n(CCC)c1=O | = | 16.1 |
| Cc1ccc(-c2n[nH]c(=O)c3noc(-c4ccc(C)cc4)c23)cc1 | = | 4.88 |
| Cc1cc(Nc2nc(-c3ccncc3)nc3ccccc23)n[nH]1 | > | 100 |
| COc1cc(/C=N/NC(=O)c2ccccc2Nc2cccc(C(F)(F)F)c2)cc(OC)c1OC | = | 11.8 |
| CN=C(N)N/N=C(\C)c1ccc2c(c1)Cc1ccccc1-2 | = | 4.4 |
| COc1ccc(C2=Nc3c/c(=C\c4c(O)[nH]c5cc(Cl)ccc45)ccc3=N2)cc1 | = | 10.4 |
| O=C1/C(=C\c2ccccc2)C2OCC=C3CN4CCC56c7ccccc7N1C5C2C3CC46 (stereo not given) | = | 26.1 |
| Cn1cc(C2=C(c3cn(CCCCC(=N)N)c4ccccc34)C(=O)NC2=O)c2ccccc21 | > | 25 |
| C=C(C)[C@@H]1CC[C@]2(C(=O)NC(C)=O)CC[C@]3(C)[C@H](CC[C@@H]4[C@@]5(C)CCCNC(C)(C)[C@@H]5CC[C@]43C)[C@@H]12 | = | 3.1 |
| COc1cc(Cn2c(-c3ccccc3)cc3c2-c2oncc2CC3)cc(OC)c1 | = | 0.745 |
| O=C(Nc1nc2ccccc2s1)c1cc(-c2ccc(F)cc2)n2nc(-c3ccccc3)cc2n1 | = | 36 |
| COC(=O)C(CSC(c1ccccc1)(c1ccccc1)c1ccccc1)NC(=O)C(CC(N)=O)NC(=O)OCc1ccccc1 (stereo not drawn) (Cbz-Asn-Cys(Trt)-OMe; configuration not given here) | = | 14.6 |

###

System: MDA-MB-468 breast
Experiment: NCI tumour cell line growth inhibition, 48 h; in the data active = GI50 below about 0.43 µM; inactive = the rest
Labels: active, inactive

| molecular_string | assigned_category |
| --- | --- |
| CCN(CC)Cc1cc(Nc2c3ccccc3nc3cc(Cl)ccc23)ccc1O | inactive |
| COc1cc(/C=N/NC(=O)c2ccccc2Nc2cccc(C(F)(F)F)c2)cc(OC)c1OC | inactive |
| COc1ccc(C2=Nc3c/c(=C\c4c(O)[nH]c5cc(Cl)ccc45)ccc3=N2)cc1 | inactive |
| Cc1c(Cl)cccc1NC(=O)c1sc2nc3c(cc2c1N)CCCC3 | active |

###

Tested on: MDA-MB-468 breast
Assay: NCI tumour cell line growth inhibition, 48 h; in the data active = GI50 below about 0.43 µM; inactive = the rest
Where a SMILES comes first, the peptide text is derived from it. The star is where a group is joined. Trt = c1ccc(C(c2ccccc2)(c2ccccc2)*)cc1; Cbz = O=C(OCc1ccccc1)*
Labels: active, inactive

| compound | assigned_category |
| --- | --- |
| COc1cc(OC)c(/C=C/S(=O)(=O)Cc2ccc(OC)c(NCC(=O)NO)c2)c(OC)c1 | active |
| Nc1c(C(=O)Nc2cccc3ccccc23)sc2nc3c(cc12)C(=O)CCC3 | active |
| COC(=O)C(CSC(c1ccccc1)(c1ccccc1)c1ccccc1)NC(=O)C(CC(N)=O)NC(=O)OCc1ccccc1 (stereo not drawn) (Cbz-Asn-Cys(Trt)-OMe; configuration not given here) | inactive |
| CCOC(=O)c1c(NCC(=O)Nc2ccc(Br)cc2)sc2c1CCCC2 | inactive |

This collection of values is drawn from PubChem BioAssay (NCI).
